- target or system: Dual specificity protein kinase CLK1 (Homo sapiens)
- Sequence (P49759 whole entry, looked up): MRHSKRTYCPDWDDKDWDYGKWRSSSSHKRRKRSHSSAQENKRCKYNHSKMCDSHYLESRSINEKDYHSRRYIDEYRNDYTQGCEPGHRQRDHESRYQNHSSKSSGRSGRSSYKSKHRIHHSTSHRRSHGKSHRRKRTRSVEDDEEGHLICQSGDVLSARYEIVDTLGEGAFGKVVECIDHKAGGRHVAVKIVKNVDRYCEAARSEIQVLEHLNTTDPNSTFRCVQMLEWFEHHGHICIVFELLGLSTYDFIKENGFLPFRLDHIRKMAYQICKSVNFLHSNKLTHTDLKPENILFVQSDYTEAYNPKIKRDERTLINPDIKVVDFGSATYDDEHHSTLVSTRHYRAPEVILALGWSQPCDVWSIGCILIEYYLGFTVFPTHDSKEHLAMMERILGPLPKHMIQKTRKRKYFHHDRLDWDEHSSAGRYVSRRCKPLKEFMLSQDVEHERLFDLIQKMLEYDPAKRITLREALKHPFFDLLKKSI
- method summary: Inhibition of CLK mediated SF3B1 activation in human SK-MEL-2 cells assessed as MDM2-pre mRNA exon skipping at 10 uM after 4 hrs by luciferase reporter gene assay relative to control
- Assay type: cell-based
Activity calls are given as the source filed them. No cut-off for these calls is given here.
Output constraint: value belongs to t = active, f = inactive

Please review the following examples before continuing.
{"columns": ["molecule", "target or system", "cat"],
 "data": [
  ["COc1ccc2c(C)nc(Nc3nc(C)c(C)c(O)n3)nc2c1", "Dual specificity protein kinase CLK1 (Homo sapiens)", "f"],
  ["CCN1/C(=C/C(C)=O)Sc2ccc(Cl)cc21", "Dual specificity protein kinase CLK1 (Homo sapiens)", "f"],
  ["CC(/C=C/[C@@H]1C[C@]2(CO2)CC(C)(C)O1)=C\\C[C@H]1CC[C@@H](NC(=O)/C=C\\[C@H](C)OC(=O)N(C)C)CC1", "Dual specificity protein kinase CLK1 (Homo sapiens)", "t"]
]}

Exercise: Please let me know the test result on file for CC(C)n1ccc2c(Nc3cccc(Cl)c3)nc(N[C@H]3CCCC[C@H]3N)nc21 (racemic) .
Key: f

Exercise: What did the test return for COC(=O)c1c(/C(C#N)=C\N)c2ccc(Cl)c(Cl)c2n1C ?
Key: t
